biological target: T1, recombinant human IL-4Rα (extracellular domain, tagged) (human, UniProt P24394 26-232); test: SPR, Biacore T200; antibody (human IgG4) on the sensor chip, human IL-4Rα at 0.625-12.5 nM
T1 construct: it is written second here only for want of that; also called hIL-4Rα; not shown: His-tag or other conventionally used tag
Assay endpoint: koff
Please answer using a numeric value trailed by its unit.

Look up koff for this binder: C27-24-56 (antibody, human IgG4, V domains shown) VH: EVQLLESGGGLVQPGGSLRLSCAASGFTLSSYAMHWVRQAPGKGLEYVSGISPTSGSTYYANSVKGRFTISRDNPKNTLFLQMSSLRAEDTAVYYCVRVKVRYRGGMDVWGQGTTVTVSS VL: EIVLTQSPGTLSLSPGERATLSCRASQSVSSAYLAWYQQKPGQAPRLLIYGTSRRATGIPDRFSGSGSGTDFTLTISRLEPEDFAVYYCQLYGASSVTFGQGTKLEIK
0.000173 s⁻¹
